Each item that follows carries a reported pIC50.
tested on: A549; assay: Antiproliferative activity against human A549 cells after 48 hrs by SRB assay; assay type: functional, cell-based; details: A549, 48 h
Reminder that pIC50 is minus the log10 of a molar concentration.

Recorded pIC50, per entry:
>>> print(df.to_string())
                                   molecule  measurement
0  Clc1ccc(-c2cc(-c3nnc(/C=C/c4ccc5c(c4)OCO5)o3)[nH]n2)cc1Cl         5.64
1  COc1cc(/C=C/c2nnc(-c3cc(-c4ccc(Cl)cc4)n[nH]3)o2)cc(OC)c1OC         5.82

Note: attention shifts to another entry.
Quick one: give measured pIC50 for COC(=O)Nc1nc2cc(C(=O)c3cccs3)ccc2[nH]1 [NOCODAZOLE]
6.05
